TARGET_UNDER_TEST: T1, human IGSF11 (VSIG3) expressed on the surface of cells (human, UniProt Q5DX21 23-431)
T1 construct: one molecule for all cell lines; the cell line is named under assay; also called IGSF11-expressing cells; HEK-OE
T1 sequence: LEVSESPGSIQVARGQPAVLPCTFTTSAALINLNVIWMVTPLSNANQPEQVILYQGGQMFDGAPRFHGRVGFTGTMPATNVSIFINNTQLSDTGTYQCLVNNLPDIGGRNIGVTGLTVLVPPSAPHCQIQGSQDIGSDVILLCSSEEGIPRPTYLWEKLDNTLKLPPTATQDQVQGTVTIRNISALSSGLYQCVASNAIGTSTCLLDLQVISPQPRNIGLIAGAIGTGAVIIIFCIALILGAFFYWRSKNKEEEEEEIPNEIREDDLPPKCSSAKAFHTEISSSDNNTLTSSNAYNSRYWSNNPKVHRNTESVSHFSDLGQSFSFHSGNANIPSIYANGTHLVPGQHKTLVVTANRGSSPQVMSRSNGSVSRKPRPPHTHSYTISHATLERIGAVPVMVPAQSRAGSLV
ASSAY_INFO: FACS on M579-A2-luc cells treated with IGSF11 siRNA (KD: target knocked down, specificity control)
Kindly supply the reported percentage binding values for the records listed here.
Quick reminder: number only, in %, skip the unit.

Query: Reported percentage binding for A-006 (human IgG1 format) (antibody, V domains shown, human IgG1 format) VH: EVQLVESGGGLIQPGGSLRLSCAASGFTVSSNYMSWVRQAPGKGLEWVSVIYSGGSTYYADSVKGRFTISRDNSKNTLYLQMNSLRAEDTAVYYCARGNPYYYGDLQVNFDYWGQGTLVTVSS VL: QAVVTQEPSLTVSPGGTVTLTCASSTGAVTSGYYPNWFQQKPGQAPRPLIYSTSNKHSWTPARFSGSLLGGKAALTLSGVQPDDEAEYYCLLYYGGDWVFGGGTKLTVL : what is it?
Result: 2.59

Query: Also check A-011 (human IgG1 format) (antibody, V domains shown, human IgG1 format) VH: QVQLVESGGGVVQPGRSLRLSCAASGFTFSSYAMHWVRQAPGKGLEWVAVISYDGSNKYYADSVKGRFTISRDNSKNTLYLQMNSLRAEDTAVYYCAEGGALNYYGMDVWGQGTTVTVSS VL: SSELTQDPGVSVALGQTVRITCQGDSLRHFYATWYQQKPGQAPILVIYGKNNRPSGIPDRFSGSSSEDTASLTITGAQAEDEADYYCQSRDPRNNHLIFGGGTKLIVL
Result: 2.41

Query: Also check A-026 (human IgG1 format) (antibody, V domains shown, human IgG1 format) VH: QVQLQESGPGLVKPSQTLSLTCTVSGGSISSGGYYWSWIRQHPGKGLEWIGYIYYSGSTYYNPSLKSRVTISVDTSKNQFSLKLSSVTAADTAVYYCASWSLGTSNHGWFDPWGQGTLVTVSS VL: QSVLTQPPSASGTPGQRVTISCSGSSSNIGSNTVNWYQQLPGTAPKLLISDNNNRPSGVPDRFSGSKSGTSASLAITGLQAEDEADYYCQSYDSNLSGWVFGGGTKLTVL
Result: 2.01

Query: Also check B-002 (chain-swapped, human IgG1 format) (antibody, V domains shown, VH of A-006 with VL of A-012; IgG1 format; also called B2; Chains-B-002) VH: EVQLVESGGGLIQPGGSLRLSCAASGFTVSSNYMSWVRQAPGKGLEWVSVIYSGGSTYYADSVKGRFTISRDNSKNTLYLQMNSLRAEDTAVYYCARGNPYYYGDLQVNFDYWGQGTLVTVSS VL: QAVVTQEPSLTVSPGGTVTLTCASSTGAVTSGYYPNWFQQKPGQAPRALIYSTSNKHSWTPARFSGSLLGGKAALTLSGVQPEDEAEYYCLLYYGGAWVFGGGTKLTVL
Result: 2.77

Query: Also check A-012 (human IgG1 format) (antibody, V domains shown, human IgG1 format) VH: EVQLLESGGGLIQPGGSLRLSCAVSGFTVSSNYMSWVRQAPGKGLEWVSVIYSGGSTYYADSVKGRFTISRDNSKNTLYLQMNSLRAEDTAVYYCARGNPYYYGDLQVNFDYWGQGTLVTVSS VL: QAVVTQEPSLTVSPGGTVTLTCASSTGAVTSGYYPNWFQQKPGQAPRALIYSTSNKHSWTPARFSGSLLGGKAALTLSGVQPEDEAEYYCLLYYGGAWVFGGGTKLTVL
Result: 2.35
